# pKi per record follows
Target: substance P receptor (Cavia porcellus)
Construct: A preparation of a crude lung membrane sample was prepared; from tissue; host or cells: guinea-pig lung (crude membrane sample)
Sequence (P30547 whole entry): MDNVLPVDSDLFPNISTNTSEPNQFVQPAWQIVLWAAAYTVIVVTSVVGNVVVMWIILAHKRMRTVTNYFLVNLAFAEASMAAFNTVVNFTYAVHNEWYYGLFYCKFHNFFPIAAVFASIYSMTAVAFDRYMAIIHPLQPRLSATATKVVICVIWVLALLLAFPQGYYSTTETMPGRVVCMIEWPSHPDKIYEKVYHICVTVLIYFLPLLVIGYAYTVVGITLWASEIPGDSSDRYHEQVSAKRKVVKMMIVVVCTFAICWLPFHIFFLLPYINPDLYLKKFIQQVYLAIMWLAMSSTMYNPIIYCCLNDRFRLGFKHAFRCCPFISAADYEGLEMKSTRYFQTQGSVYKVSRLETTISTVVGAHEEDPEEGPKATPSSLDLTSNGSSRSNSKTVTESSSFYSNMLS
Experiment: Test for binding to guinea-pig substance P receptor (crude lung membrane sample)
Details: crude guinea-pig lung membrane sample, [3H]substance P; Ki from IC50 and Kd; read-out: Ki
pKi: −log10 of the molar value. Structures can show the parent of a compound that is named as a salt.
reported.endpoint: pKi

>>> quantitative_readout("CN(CCN1CCC(OC(=O)Nc2ccccc2-c2ccccc2)CC1)C(=O)CCCCCCN(C)c1ccc(C(=O)N(C)CCCN(C)C(=O)CO[C@H]2Cc3ccccc3C23CCN(CC[C@@]2(c4ccc(F)cc4)CN(C(=O)c4cc(C(F)(F)F)cc(C(F)(F)F)c4)CO2)CC3)cc1 [Example 40, trihydrochloride]")
8.80
>>> quantitative_readout("CN(CCN1CCC(OC(=O)Nc2ccccc2-c2ccccc2)CC1)C(=O)CCCCCN(C)c1ccc(C(=O)N(C)CCCN(C)C(=O)CO[C@H]2Cc3ccccc3C23CCN(CC[C@@]2(c4ccc(F)cc4)CN(C(=O)c4cc(C(F)(F)F)cc(C(F)(F)F)c4)CO2)CC3)cc1 [Example 76]")
8.57
>>> quantitative_readout("CN(CCN1CCC(OC(=O)Nc2ccccc2-c2ccccc2)CC1)C(=O)CCCCCN(C)c1ccc(C(=O)N(C)CCCN(C)C(=O)CO[C@H]2Cc3ccccc3C23CCN(CC[C@@]2(c4ccc(F)cc4)CN(C(=O)c4cc(C(F)(F)F)cc(C(F)(F)F)c4)CO2)CC3)s1 [Example 8]")
8.59
>>> quantitative_readout("Cc1nc(NCCCCCC(=O)N(C)CCN2CCC(OC(=O)Nc3ccccc3-c3ccccc3)CC2)sc1C(=O)N(C)CCN(C)C(=O)CO[C@H]1Cc2ccccc2C12CCN(CC[C@@]1(c3ccc(F)cc3)CN(C(=O)c3cc(C(F)(F)F)cc(C(F)(F)F)c3)CO1)CC2 [Example 107, trihydrochloride]")
8.92
>>> quantitative_readout("CN(CCN1CCC(OC(=O)Nc2ccccc2-c2ccccc2)CC1)C(=O)CCCCCNc1ccc(C(=O)N(C)CCCN(C)C(=O)CO[C@H]2Cc3ccccc3C23CCN(CC[C@@]2(c4ccc(F)cc4)CN(C(=O)c4cc(C(F)(F)F)cc(C(F)(F)F)c4)CO2)CC3)c(Cl)c1 [Example 85, trihydrochloride]")
8.66
>>> quantitative_readout("CN(CCN1CCC(OC(=O)Nc2ccccc2-c2ccccc2)CC1)C(=O)CCCCCNc1nc(CC(=O)N(C)CCCN(C)C(=O)CO[C@H]2Cc3ccccc3C23CCN(CC[C@@]2(c4ccc(F)cc4)CN(C(=O)c4cc(C(F)(F)F)cc(C(F)(F)F)c4)CO2)CC3)cs1 [Example 88, trihydrochloride]")
8.96
>>> quantitative_readout("CN(CCCCCC(=O)N(C)CCN1CCC(OC(=O)Nc2ccccc2-c2ccccc2)CC1)Cc1cccc(C(=O)N(C)CCCN(C)C(=O)CO[C@H]2Cc3ccccc3C23CCN(CC[C@@]2(c4ccc(F)cc4)CN(C(=O)c4cc(C(F)(F)F)cc(C(F)(F)F)c4)CO2)CC3)c1 [Example 41, trihydrochloride]")
9.02

====

Target: human NK2 receptor (Homo sapiens, UniProt P21452)
Construct: expressed in transfected cells; host or cells: COS cells
Sequence (P21452 1-398): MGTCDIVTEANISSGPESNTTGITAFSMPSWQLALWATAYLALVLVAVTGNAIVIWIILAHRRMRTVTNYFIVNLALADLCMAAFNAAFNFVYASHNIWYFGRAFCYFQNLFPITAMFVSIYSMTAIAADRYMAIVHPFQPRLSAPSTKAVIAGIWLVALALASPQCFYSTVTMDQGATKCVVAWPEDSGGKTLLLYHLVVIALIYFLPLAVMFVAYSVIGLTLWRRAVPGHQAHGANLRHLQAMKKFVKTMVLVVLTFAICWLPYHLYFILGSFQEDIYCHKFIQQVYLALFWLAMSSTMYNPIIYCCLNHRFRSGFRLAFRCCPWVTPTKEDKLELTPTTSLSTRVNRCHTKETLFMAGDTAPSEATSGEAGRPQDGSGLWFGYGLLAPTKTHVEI
Experiment: Test for binding to human NK2 receptor
pKi: −log10 of the molar value. Where a name gives a salt, the structure may show the parent alone.
reported.endpoint: pKi

>>> quantitative_readout("Cc1nc(N(C)CCCCCC(=O)N(C)CCN2CCC(OC(=O)Nc3ccccc3-c3ccccc3)CC2)sc1C(=O)N(C)CCCN(C)C(=O)CO[C@H]1Cc2ccccc2C12CCN(CC[C@@]1(c3ccc(F)cc3)CN(C(=O)c3cc(C(F)(F)F)cc(C(F)(F)F)c3)CO1)CC2 [Example 106, trihydrochloride]")
9.47
>>> quantitative_readout("CN(CCN1CCC(OC(=O)Nc2ccccc2-c2ccccc2)CC1)C(=O)CCCCNc1ccc(C(=O)N(C)CCCN(C)C(=O)CO[C@H]2Cc3ccccc3C23CCN(CC[C@@]2(c4ccc(F)cc4)CN(C(=O)c4cc(C(F)(F)F)cc(C(F)(F)F)c4)CO2)CC3)cc1 [Example 32, trihydrochloride]")
9.13
>>> quantitative_readout("Cc1nc(NCCCCCC(=O)N(C)CCN2CCC(OC(=O)Nc3ccccc3-c3ccccc3)CC2)sc1C(=O)N(C)CCCN(C)C(=O)CO[C@H]1Cc2ccccc2C12CCN(CC[C@@]1(c3ccc(F)cc3)CN(C(=O)c3cc(C(F)(F)F)cc(C(F)(F)F)c3)CO1)CC2 [Example 105, trihydrochloride]")
9.07

Hey, just so you know, these numbers are from patent US8476253B2.
